# Target: CD73 on U138 human neuroglioma cells (Homo sapiens, UniProt P21589)
# Construct: U138 cells were obtained from ATCC and cultured in DMEM with 10% FBS; host or cells: U138 human neuroglioma cells
# Assay protocol: CD73 Cell-Based Assay
# Experimental context: U138 cells, AMP substrate, 2 hours at 37° C., inorganic phosphate by malachite green
Property: IC50

Name the recorded IC50 for C[C@H](Nc1nc(Cl)nc2c1ccn2[C@@H]1O[C@H](COCP(=O)(O)O)[C@@H](O)[C@H]1O)c1cccc(F)c1 [Compound 74] .
10 to 100 nM

Name the recorded IC50 for O=P(O)(O)CS(=O)(=O)C[C@H]1O[C@@H](n2ccc3c(N4CCCC4)nc(Cl)nc32)[C@H](O)[C@@H]1O [Compound 163] .
10 to 100 nM

Name the recorded IC50 for Cn1cc(-c2nc(NCc3ccccc3)c3ncn([C@@H]4O[C@H](COCP(=O)(O)O)[C@@H](O)[C@H]4O)c3n2)cn1 [Compound 9] .
> 1000 nM

Name the recorded IC50 for O=P(O)(O)COC[C@H]1O[C@@H](n2cnc3c(NC4CCc5ccccc54)ncnc32)[C@H](O)[C@@H]1O (stereo partly shown) [Compound 52] .
100 to 1000 nM

====

What pIC50 was measured for each of the following?
# Target: CD73 on U138 human neuroglioma cells (Homo sapiens, UniProt P21589)
# Construct: U138 cells were obtained from ATCC and cultured in DMEM with 10% FBS; host or cells: U138 human neuroglioma cells
# Assay protocol: CD73 Cell-Based Assay
# Experimental context: U138 cells, AMP substrate, 2 hours at 37° C., inorganic phosphate by malachite green
pIC50: −log10 of the molar value.

Name the recorded pIC50 for CC[C@H](Nc1nc(Cl)nc2c1ccn2[C@@H]1O[C@H](COCP(=O)(O)O)[C@@H](O)[C@H]1O)c1ccccc1 .
> 8.00

Name the recorded pIC50 for O=P(O)(O)COC[C@H]1O[C@@H](c2c(Br)sc3c(N4CC5CCCC5C4)nc(Cl)nc23)[C@H](O)[C@@H]1O (stereo partly shown) .
6.00 to 7.00

Name the recorded pIC50 for C[C@H](Nc1nc(C#N)nc2c1ccn2[C@@H]1O[C@H](COCP(=O)(O)O)[C@@H](O)[C@H]1O)c1ccc(F)cc1 .
> 8.00

Name the recorded pIC50 for O=P(O)(O)COC[C@H]1O[C@@H](n2ccc3c(N4CCC4)nc(Cl)nc32)[C@H](O)[C@@H]1O .
7.00 to 8.00

====

# Target: Human CD73 (Homo sapiens, UniProt P21589)
# Construct: purchased R&D Systems; host or cells: CHO cells
# Sequence (P21589 27-549): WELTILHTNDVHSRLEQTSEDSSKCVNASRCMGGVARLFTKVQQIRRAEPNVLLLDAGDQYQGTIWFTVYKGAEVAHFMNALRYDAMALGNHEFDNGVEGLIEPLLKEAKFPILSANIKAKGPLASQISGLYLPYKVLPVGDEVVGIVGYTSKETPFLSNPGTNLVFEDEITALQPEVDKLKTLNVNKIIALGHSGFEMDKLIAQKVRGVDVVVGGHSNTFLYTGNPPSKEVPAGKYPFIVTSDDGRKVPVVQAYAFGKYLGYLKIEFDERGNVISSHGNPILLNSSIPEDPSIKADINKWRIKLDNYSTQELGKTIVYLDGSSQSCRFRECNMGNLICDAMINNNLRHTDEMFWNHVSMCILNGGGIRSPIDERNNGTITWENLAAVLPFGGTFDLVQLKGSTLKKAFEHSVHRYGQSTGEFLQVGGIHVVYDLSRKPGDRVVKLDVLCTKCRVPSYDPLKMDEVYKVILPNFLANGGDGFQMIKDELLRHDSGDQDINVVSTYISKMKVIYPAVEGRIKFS
# Assay protocol: CD73 Enzyme Assay
# Format: biochemical
# Experimental context: 0.25 nM hCD73, 25 μM AMP, kinetic read at 360 nm; read-out: CD73 Enzyme Assay IC50
pIC50: −log10 of the molar value.
What pIC50 was measured for each of the following?

I'm curious: which pIC50 was measured for O=P(O)(O)COC[C@H]1O[C@@H](c2c[nH]c3c(N4CC5CCCC5C4)nc(Cl)nc23)[C@H](O)[C@@H]1O (stereo partly shown) tested on Human CD73 (Homo sapiens, UniProt P21589)?
> 8.00

I'm curious: which pIC50 was measured for C[C@H]1CCCN1c1nc(Cl)nc2c1ccn2[C@@H]1O[C@H](COCP(=O)(O)O)[C@@H](O)[C@H]1O tested on Human CD73 (Homo sapiens, UniProt P21589)?
7.00 to 8.00

I'm curious: which pIC50 was measured for O=P(O)(O)COC[C@H]1O[C@@H](n2ccc3c(NC4CCC(F)(F)CC4)nc(Cl)nc32)[C@H](O)[C@@H]1O tested on Human CD73 (Homo sapiens, UniProt P21589)?
7.00 to 8.00

I'm curious: which pIC50 was measured for O=P(O)(O)CP(=O)(O)OC[C@H]1O[C@@H](n2cnc3c(NC4CCCC4)nc(Cl)nc32)[C@H](O)[C@@H]1O tested on Human CD73 (Homo sapiens, UniProt P21589)?
> 8.00

I'm curious: which pIC50 was measured for O=P(O)(O)COC[C@H]1O[C@@H](n2ccc3c(N[C@H](CO)c4ccccc4)nc(Cl)nc32)[C@H](O)[C@@H]1O tested on Human CD73 (Homo sapiens, UniProt P21589)?
6.00 to 7.00

I'm curious: which pIC50 was measured for N#Cc1nc(NC2CCC(F)(F)CC2)c2ccn([C@@H]3O[C@H](COCP(=O)(O)O)[C@@H](O)[C@H]3O)c2n1 tested on Human CD73 (Homo sapiens, UniProt P21589)?
> 8.00

I'm curious: which pIC50 was measured for O=P(O)(O)COC[C@H]1O[C@@H](n2ccc3c(Oc4ccccc4)nc(Cl)nc32)[C@H](O)[C@@H]1O tested on Human CD73 (Homo sapiens, UniProt P21589)?
7.00 to 8.00
